Catalogue of Phage binding ELISA signal, Anti-PSMA Fab in presence of PSMA antigen values
# target_entity: T1, Anti-PSMA Fab (biotinylated (site not stated))
# T1 construct: Biotinylated PSMA Fab captured on neutravidin plates in the phage ELISA; also called 006 PSMA Fab
# experiment_summary: clonal phage ELISA on captured biotinylated PSMA Fab pre-incubated with PSMA antigen as competitor, anti-M13 HRP detection
Give only the figure.

>>> observed_measurement("LLIVCKPPWMCAGS [Phage-3990]")
0.0992
>>> observed_measurement("VFKMCVPMWMCQVS [Phage-3992]")
0.0687
>>> observed_measurement("VVVQCIPEWMCNGF [Phage-3981]")
0.0683
>>> observed_measurement("KHILCEPVWMCVGF [Phage-3984]")
0.0708

Lab note: next binder to report on.
Entry under test: SYQLCKPEWMCHGW [Phage-3982] . Its Phage binding ELISA signal, Anti-PSMA Fab in presence of PSMA antigen was 0.0692
